Reference source: the supplement of paper PMC9694430

- Test system: LOC_OS04G41100-cb001
- Sequence (as listed by the source): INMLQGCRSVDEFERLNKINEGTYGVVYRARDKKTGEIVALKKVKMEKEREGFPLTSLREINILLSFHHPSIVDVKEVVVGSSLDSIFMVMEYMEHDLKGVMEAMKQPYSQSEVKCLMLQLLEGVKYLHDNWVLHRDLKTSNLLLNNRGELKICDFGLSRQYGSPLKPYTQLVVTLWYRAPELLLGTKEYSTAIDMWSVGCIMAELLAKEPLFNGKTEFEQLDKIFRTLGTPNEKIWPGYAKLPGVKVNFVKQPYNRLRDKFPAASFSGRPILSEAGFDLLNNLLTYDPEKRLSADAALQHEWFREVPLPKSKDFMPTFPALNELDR
- assayExplanation: thermal shift delta Tm vs DMSO control; higher = stronger stabilization (binding);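 further: purified Escherichia coli-expressed rice kinase domain construct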
- assaySetup: 12.5 µM; protein concentration 2 µM
Recorded thermal shift delta Tm for the following compounds
assayReadout: thermal shift delta Tm (°C)

{"compound": "COCCOc1ccc2c(c1)ncn2-c1ccc2cccc(N3CCC(N)CC3)c2n1", "targetDesc": "LOC_OS04G41100-cb001", "assayReadout": "thermal shift delta Tm", "numericResult": 0.51}
{"compound": "Cc1ccc(NC(=O)c2cccc(N(C)C)c2)cc1NC(=O)c1ccc(O)cc1", "targetDesc": "LOC_OS04G41100-cb001", "assayReadout": "thermal shift delta Tm", "numericResult": 0.23}
{"compound": "CO[C@@H](C(=O)N1Cc2[nH]nc(NC(=O)c3ccc(N4CCN(C)CC4)cc3)c2C1)c1ccccc1", "targetDesc": "LOC_OS04G41100-cb001", "assayReadout": "thermal shift delta Tm", "numericResult": 1.51}
{"compound": "N#Cc1cccc(-c2c[nH]c3ncnc(N4CCOCC4)c23)c1", "targetDesc": "LOC_OS04G41100-cb001", "assayReadout": "thermal shift delta Tm", "numericResult": 0.06}
{"compound": "O=c1cc(-c2ccccc2)oc2c(O)c(O)ccc12 [7,8-Dihydroxyflavone]", "targetDesc": "LOC_OS04G41100-cb001", "assayReadout": "thermal shift delta Tm", "numericResult": -0.06}
{"compound": "CC#CC(=O)N1CCC[C@H]1c1nc(-c2ccc(C(=O)Nc3ccccn3)cc2)c2c(N)nccn12 [Acalabrutinib (ACP-196)]", "targetDesc": "LOC_OS04G41100-cb001", "assayReadout": "thermal shift delta Tm", "numericResult": 0.5}
{"compound": "CC(C)CCN1c2nc(Nc3cc(F)c(O)c(F)c3)ncc2N(C)C(=O)C1C (centres undefined)", "targetDesc": "LOC_OS04G41100-cb001", "assayReadout": "thermal shift delta Tm", "numericResult": 1.29}
{"compound": "Cc1cc([C@@H](C)Nc2ccccc2C(=O)O)c2nc(N3CCOCC3)cc(=O)n2c1", "targetDesc": "LOC_OS04G41100-cb001", "assayReadout": "thermal shift delta Tm", "numericResult": 0.37}
{"compound": "C=CC(=O)Nc1cccc(Sc2nc(Nc3ccc(N4CCN(C)CC4)cc3)ncc2Cl)c1", "targetDesc": "LOC_OS04G41100-cb001", "assayReadout": "thermal shift delta Tm", "numericResult": 1.47}

---

- Tested on: LOC_OS03G50810-cb003
- assayExplanation: thermal shift delta Tm vs DMSO control; higher = stronger stabilization (binding)
- assaySetup: 12.5 µM; protein concentration 2 µM

{"molecule": "N#Cc1ccc2ncnc(NCCc3ccccc3)c2c1", "targetDesc": "LOC_OS03G50810-cb003", "unitAbbreviation": "°C", "thermal shift delta Tm": 0.83}
{"molecule": "CN(C)C/C=C/C(=O)Nc1cc2c(Nc3ccc(F)c(Cl)c3)ncnc2cc1O[C@H]1CCOC1", "targetDesc": "LOC_OS03G50810-cb003", "unitAbbreviation": "°C", "thermal shift delta Tm": 0.86}
{"molecule": "CCN(CC)CCNC(=O)c1c(C)[nH]c(/C=C2\\C(=O)Nc3ccc(F)cc32)c1C [Sunitinib Malate]", "targetDesc": "LOC_OS03G50810-cb003", "unitAbbreviation": "°C", "thermal shift delta Tm": 6.79}
{"molecule": "Cc1cc(C(=O)NOCCO)c(Nc2ccc(I)cc2F)n(C)c1=O", "targetDesc": "LOC_OS03G50810-cb003", "unitAbbreviation": "°C", "thermal shift delta Tm": -0.06}
{"molecule": "COc1cc(Nc2ncc(F)c(Nc3ccc4c(n3)N(COP(=O)(O)O)C(=O)C(C)(C)O4)n2)cc(OC)c1OC [Fostamatinib (R788)]", "targetDesc": "LOC_OS03G50810-cb003", "unitAbbreviation": "°C", "thermal shift delta Tm": 3.97}
{"molecule": "CO[C@@H](C)Cn1c(=O)n(C)c2cnc3ccc(-c4cncc(C(C)(C)O)c4)cc3c21", "targetDesc": "LOC_OS03G50810-cb003", "unitAbbreviation": "°C", "thermal shift delta Tm": 0.67}
{"molecule": "N#CC[C@H](C1CCCC1)n1cc(-c2ncnc3[nH]ccc23)cn1", "targetDesc": "LOC_OS03G50810-cb003", "unitAbbreviation": "°C", "thermal shift delta Tm": 0.46}
{"molecule": "O=C(Cc1ccc(-c2ccc(OCCN3CCOCC3)cc2)cn1)NCc1ccccc1", "targetDesc": "LOC_OS03G50810-cb003", "unitAbbreviation": "°C", "thermal shift delta Tm": 0.43}
{"molecule": "Cc1cc(Nc2cc(Cl)nc(Oc3ccc([N+](=O)[O-])cc3)n2)n[nH]1", "targetDesc": "LOC_OS03G50810-cb003", "unitAbbreviation": "°C", "thermal shift delta Tm": 0.7}
